Target: Cyclin-dependent kinase 4 (Homo sapiens)
Sequence (P11802 whole entry): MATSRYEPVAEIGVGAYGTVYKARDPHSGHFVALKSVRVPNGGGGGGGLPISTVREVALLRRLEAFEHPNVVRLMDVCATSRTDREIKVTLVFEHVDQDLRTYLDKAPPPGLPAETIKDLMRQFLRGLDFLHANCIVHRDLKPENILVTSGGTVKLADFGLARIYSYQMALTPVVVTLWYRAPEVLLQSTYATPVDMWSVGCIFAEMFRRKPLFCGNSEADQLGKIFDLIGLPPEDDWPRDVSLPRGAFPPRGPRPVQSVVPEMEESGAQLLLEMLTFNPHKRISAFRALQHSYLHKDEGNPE
recordedMetric: pIC50
Entry type: numeric. Quantity: pIC50, the -log10 of concentration in molar units.

Value lookup for pIC50; key = NC1NC[C@H](O)[C@@]2(N1)[C@H]1[C@H](CN3C(=O)c4cc(Br)cn4[C@H]4NC(N)N[C@@]413)[C@H](CNC(=O)c1cc(Br)c(Br)[nH]1)[C@@H]2Cl (stereo partly specified)
4.58

====

Test system: P388
Assay: Cytotoxicity against mouse P388 cells
Type: functional, cell-based
The molecules listed here are annotated with their IC50.
Express the result in µM but write the number alone.

- chemicalSmiles: "NC1=N[C@@]23CCCN2C(=O)c2c([nH]c(Br)c2Br)[C@H]3N1"
  unitsSymbol: "µM"
  IC50: 20.3

Let us move to another entry and its IC50.
Value lookup for IC50; key = `NC1=N[C@]23[C@H](N1)c1[nH]c(Br)c(Br)c1C(=O)N2C[C@H](O)[C@H]3O`
78.4

====

Tested on: KB
Test: Cytotoxicity against human KB cells
Format: functional, cell-based
The molecules listed here are annotated with their IC50.
Express the result in µM but write the number alone.

Value lookup for IC50; key = N=C1N=C(NCCS(=O)(=O)O)C(O)(/C=C/CNC(=O)c2cc(Br)c(Br)[nH]2)N1 (stereo not drawn)
20.7

Repeat with NC1NC[C@H](O)[C@@]2(N1)[C@H]1[C@H](CN3C(=O)c4cc(Br)cn4[C@H]4NC(N)N[C@@]413)[C@H](CNC(=O)c1cc(Br)c(Br)[nH]1)[C@@H]2Cl (stereo partly drawn)
26.7

Repeat with NC1NC(/C=C/CNC(=O)c2cc(Br)c(Br)[nH]2)=C([n+]2cccc(O)c2)N1 (stereo not drawn)
20.7

====

System: Bel-7402
Experiment: Cytotoxicity against human Bel-7402 cells incubated for 72 hrs by MTT assay
Format: functional, cell-based
Settings: Bel-7402, 72 h
recordedMetric: IC50

Value lookup for IC50; key = COC(=O)C(NCC(=O)c1cc(Br)c(Br)[nH]1)C(C)C (stereo unspecified)
27.8 µM

====

Tested on: CNE
Assay: Cytotoxicity against human CNE cells incubated for 72 hrs by MTT assay
Type: functional, cell-based
recordedMetric: IC50
Please format your answer as a value with the unit trailing.

Param readout= IC50; system= CNE; entry= COC(=O)C(NCC(=O)c1cc(Br)c(Br)[nH]1)C(C)C (stereo unspecified) ; returns value.
43.5 µM

====

System: MDA-MB-231
Experiment: Antiproliferative activity against human MDA-MB-231 cells incubated for 72 hrs by SRB assay
Assay type: functional, cell-based
Conditions: MDA-MB-231, 72 h
recordedMetric: pIC50
Entry type: numeric. Quantity: pIC50, the -log10 of concentration in molar units.

Value lookup for pIC50; key = NC1=NC(=O)C([C@@H]2[C@@H](CNC(=O)c3cc(Br)c[nH]3)[C@H](CNC(=O)c3cc(Br)c[nH]3)[C@H]2C2NC(N)=NC2=O)N1 (stereo partly specified)
4.48
